EXPERIMENTAL TARGET: V600E full-length B-Raf (Homo sapiens, UniProt P15056, V600E)
Construct: made in house; host or cells: Sf9 insect cells (baculovirus)
Sequence (P15056 whole entry V600E): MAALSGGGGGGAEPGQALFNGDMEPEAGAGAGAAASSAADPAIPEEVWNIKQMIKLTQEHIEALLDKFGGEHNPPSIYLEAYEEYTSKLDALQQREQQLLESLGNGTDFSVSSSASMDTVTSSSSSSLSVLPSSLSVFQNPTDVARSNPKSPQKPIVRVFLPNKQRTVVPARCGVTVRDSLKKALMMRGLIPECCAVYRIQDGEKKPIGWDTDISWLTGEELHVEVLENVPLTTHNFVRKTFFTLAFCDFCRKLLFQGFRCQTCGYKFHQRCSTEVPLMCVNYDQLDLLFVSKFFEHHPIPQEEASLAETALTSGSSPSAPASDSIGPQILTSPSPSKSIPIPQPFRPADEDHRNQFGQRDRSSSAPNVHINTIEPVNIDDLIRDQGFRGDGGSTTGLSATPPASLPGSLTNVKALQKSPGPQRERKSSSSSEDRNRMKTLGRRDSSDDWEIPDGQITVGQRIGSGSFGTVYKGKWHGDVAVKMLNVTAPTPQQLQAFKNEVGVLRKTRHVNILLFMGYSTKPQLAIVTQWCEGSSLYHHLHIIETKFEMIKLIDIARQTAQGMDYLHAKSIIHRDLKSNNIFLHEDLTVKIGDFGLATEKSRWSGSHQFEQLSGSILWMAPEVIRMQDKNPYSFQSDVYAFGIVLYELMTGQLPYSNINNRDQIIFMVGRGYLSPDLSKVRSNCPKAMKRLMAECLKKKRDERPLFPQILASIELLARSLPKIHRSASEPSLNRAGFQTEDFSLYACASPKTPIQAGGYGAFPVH
TEST METHOD NOTES: B-Raf IC50 assay (incorporation of radiolabeled phosphate from [γ-33P]ATP into FSBA-modified wild-type MEK)
Format: biochemical
CONDITIONS USED: bound stated
MEASURE NAME: IC50

Recorded IC50, per entry:
Please list IC50 recorded for the compound CCCS(=O)(=O)Nc1ccc(F)c(C(=O)Nc2cnc3cc(-c4ccc(C)cc4)nn3c2)c1F [Example 8]
< 150 nM

Answer with reported IC50 of CCCS(=O)(=O)Nc1ccc(F)c(C(=O)Nc2cnc3cc(NC)nn3c2)c1F [Example 35]
< 150 nM

Output measured IC50 for this item: CCCS(=O)(=O)Nc1ccc(F)c(C(=O)Nc2cnc3cc(OCC)nn3c2)c1F [Example 3]
< 150 nM

Report IC50 for CCCS(=O)(=O)Nc1ccc(F)c(C(=O)Nc2cnc3cc(-c4cnn(CCO)c4)nn3c2)c1F [Example 13]
< 150 nM

Item CCCS(=O)(=O)Nc1ccc(Cl)c(C(=O)Nc2cnc3cc(-c4ccccc4)nn3c2)c1F [Example 33] : provide IC50
< 150 nM

---
Note down IC50 recorded for CCCS(=O)(=O)Nc1ccc(F)c(C(=O)Nc2cnc3cc(OCCOC)nn3c2)c1F [Example 16]
< 150 nM

Please supply the value of reported IC50 for the item CCCS(=O)(=O)Nc1ccc(F)c(C(=O)Nc2cnc3cc(C4CCCC4)nn3c2)c1F [Example 30]
< 150 nM

# return recorded IC50 for input CCCS(=O)(=O)Nc1ccc(F)c(C(=O)Nc2cnc3cc(NC(C)C)nn3c2)c1F [Example 18]
< 300 nM

State its IC50 for this compound: CCCS(=O)(=O)Nc1ccc(F)c(C(=O)Nc2cnc3ccnn3c2)c1F [Example 27]
< 300 nM

Using the record for CCCS(=O)(=O)Nc1ccc(F)c(C(=O)Nc2cnc3cc(-c4cccc(N5CCN(C)CC5)c4)nn3c2)c1F [Example 11] , state its measured IC50.
< 150 nM

Identify IC50 associated with the compound CCCS(=O)(=O)Nc1ccc(F)c(C(=O)Nc2cnc3cc(C4CCNCC4)nn3c2)c1F [Example 4]
< 300 nM

Supply IC50 value. Item: CCCS(=O)(=O)Nc1ccc(F)c(C(=O)Nc2cnc3cc(OC)nn3c2)c1F [Example 1]
< 150 nM

Find the measured IC50 of CCCS(=O)(=O)Nc1ccc(F)c(C(=O)Nc2cnc3cc(C)nn3c2)c1F [Example 26] and report it.
< 150 nM

Identify measured IC50 associated with CCCS(=O)(=O)Nc1ccc(F)c(C(=O)Nc2cnc3cc(OCCO)nn3c2)c1F [Example 15]
< 150 nM

For the compound CCCS(=O)(=O)Nc1ccc(F)c(C(=O)Nc2cnc3cc(N4CCOCC4)nn3c2)c1F [Example 36] , give its reported IC50.
< 300 nM

Determine from records and report IC50 for CCCS(=O)(=O)Nc1ccc(F)c(C(=O)Nc2cnc3cc(OC)nn3c2)c1Cl [Example 20]
< 150 nM
